test system: Plasmodium falciparum; test: GSK_TCMDC: Inhibition of Plasmodium falciparum 3D7 in whole erythrocytes, using parasite LDH activity as an index of growth.; format: functional, organism-based; details: Plasmodium falciparum, 3D7
Below: a set of entries, each annotated with reported XC50.
Provide the reading as a plain figure in nM.

INSERT INTO measurements (compound, measured_quantity, measured_result) VALUES
  ('CS(=O)(=O)c1ccc(CNCc2cccc(-c3cccc(-c4nc5cc(C(F)(F)F)ccc5[nH]4)c3)c2)cc1', 'XC50', 182),
  ('COc1ccc(NC(=O)Nc2ccc(-c3ccccc3)cc2)cc1Cn1cnc(N2CCCNCC2)cc1=O', 'XC50', 759),
  ('COc1ccccc1NC(=O)Nc1cccc(-c2ccc(-c3nc4cc(C(F)(F)F)ccc4[nH]3)cc2)c1', 'XC50', 306),
  ('Cc1cc(=NN=CC=Cc2ccccc2)c2ccc(F)cc2[nH]1', 'XC50', 590),
  ('FC(F)(F)c1ccc2[nH]ccc(=NN=Cc3ccccc3Cl)c2c1', 'XC50', 799),
  ('Cc1cccc(CN2CCC(C(=O)Nc3ccc(-c4nc5ccccc5[nH]4)cc3)CC2)n1', 'XC50', 919);

Request: Tell me XC50 reported for O=C(C=Cc1ccc(Br)cc1)NC1CCC(CN2CCC(c3c[nH]c4ccccc34)CC2)CC1 (centres undefined)
Result: 682

Request: Tell me XC50 reported for "CC(C)(C)NCCN(Cc1ccc(-c2ccc(C(F)(F)F)cc2)cc1)C(=O)Cn1c(CCc2cccc(F)c2F)nc(=O)c2ccccc21"
Result: 764

Request: Tell me XC50 reported for "CC(C)(C)C1=CC(=NNC(=O)c2ccncc2)C=C(C(C)(C)C)C1=O"
Result: 704

###

tested on: Plasmodium falciparum; experiment: GSK_TCMDC: Inhibition of Plasmodium falciparum 3D7 in whole erythrocytes, using parasite LDH activity as an index of growth.; assay type: functional, organism-based; details: Plasmodium falciparum, 3D7
measured-quantity: XC50
Answers without a unit are incomplete; give the number and then its unit.

Request: Please report the measured XC50 for "COc1cccc(CCNCCCCCCNCCc2ccc(Cl)cc2)c1" tested on Plasmodium falciparum.
Result: 1.01 µM

Request: Please report the measured XC50 for CCOC(=O)C1=C(C)NC(Cn2ccnc2)=C(C(=O)OCC)C1c1ccc(C(C)(C)C)cc1 (centres undefined) tested on Plasmodium falciparum.
Result: 0.807 µM

Request: Please report the measured XC50 for "O=C(Cc1ccc[n+]([O-])c1)Nc1cccc(-c2cccc(-c3nc4cc(F)ccc4[nH]3)c2)c1" tested on Plasmodium falciparum.
Result: 0.897 µM

Request: Please report the measured XC50 for N#CC1(c2ccccc2)CCN(c2nc(NCCCN3CCCC3=O)nc(N3CCCC4CCCCC43)n2)CC1 (centres undefined) tested on Plasmodium falciparum.
Result: 0.864 µM

###

system: Plasmodium falciparum; test: GSK_TCMDC: Inhibition of Plasmodium falciparum 3D7 in whole erythrocytes, using parasite LDH activity as an index of growth.; type: functional, organism-based; details: Plasmodium falciparum, 3D7
Below: a set of entries, each annotated with reported XC50.
Provide the reading as a plain figure in nM.

INSERT INTO results (compound, measured_quantity, scale_unit, measured_result) VALUES
  ('N#CCCN1CCN(Cc2ccc(-c3cccc(-c4nc5cc(F)ccc5[nH]4)c3)cc2)CC1', 'XC50', 'nM', 972),
  ('OC(CNc1ccnc(Nc2cccc(Cl)c2)n1)c1cccc(C(F)(F)F)c1 (stereo not given)', 'XC50', 'nM', 513),
  ('CCN(CC)CCNc1ccnc2[nH]c3ccc(C)cc3c12', 'XC50', 'nM', 669),
  ('CCOc1ccc(-c2nonc2NC(=O)c2ccccc2F)cc1OCC', 'XC50', 'nM', 841),
  ('CC(C)Cn1ccc2c3c(N)nc(N)nc3ccc21', 'XC50', 'nM', 34.2);

Request: Tell me XC50 reported for "C#CCNCc1ccc(-c2cccc(-c3nc4cccc(C)c4[nH]3)c2)cc1"
Result: 818

Request: Tell me XC50 reported for COc1cc(Cc2cnc(N)nc2N)cc(CC(C)O)c1O (stereo not given)
Result: 843

Request: Tell me XC50 reported for "CN(C)CCN1CCN(Cc2ccc(-c3cccc(-c4nc5ccccc5[nH]4)c3)cc2)CC1"
Result: 199

Request: Tell me XC50 reported for "Cc1cc(F)ccc1[C@H]1CNCCN1C(=O)N(C)[C@@H](C)c1cc(C(F)(F)F)cc(C(F)(F)F)c1"
Result: 232

Request: Tell me XC50 reported for CCNc1cc(C(=O)NC(Cc2ccccc2)C(O)CNC(C)(C)CCCC(C)C)c(F)c(N2CCCS2(=O)=O)c1 (stereo not given)
Result: 197

###

test system: Plasmodium falciparum; test: GSK_TCMDC: Inhibition of Plasmodium falciparum 3D7 in whole erythrocytes, using parasite LDH activity as an index of growth.; format: functional, organism-based; details: Plasmodium falciparum, 3D7
measured-quantity: XC50 (nM)
Provide the reading as a plain figure in nM.

Reference set, count: 8
INSERT INTO measurements (compound, scale_unit, measured_result) VALUES
  ('Cc1cc(NCCC(=O)NCc2cccc(F)c2)nc(NCCc2ccc(F)cc2)n1', 'nM', 1750),
  ('COc1cccc(-c2cnc(N)c(-c3nc4ccc(C(F)(F)F)cc4[nH]3)c2)c1', 'nM', 652),
  ('O=S(=O)(Nc1cccc(CCN2CCCCC2CCN2CCCC2)c1)c1ccc2ccccc2c1 (centres undefined)', 'nM', 1070),
  ('O=C(Nc1ccc2c(c1)OCO2)NC1CCN(c2ccnc(NCc3ccc(F)cc3)n2)CC1', 'nM', 943),
  ('COc1ccc2nccc(NC(=O)C3CCC(NCc4cnc(SC)c([N+](=O)[O-])c4)CC3)c2n1 (centres undefined)', 'nM', 927),
  ('CCCc1cc(Cc2cnc(N)nc2N)ccc1OCCCCCC(=O)O', 'nM', 577),
  ('COc1cccc(-c2cc(C(F)(F)F)n3ncc(C(=O)Nc4cc(Cl)ccc4O)c3n2)c1', 'nM', 203),
  ('CN(C)Cc1ccc(-c2cccc(NC(=O)c3ccc(Cl)cc3)c2)cc1', 'nM', 900);

Switching to the query record.
Request: Please report the measured XC50 for "O=C(/C=C/c1ccc(Cl)c(Cl)c1)NCCCCCN1CCC(NC(=S)Nc2ccc(Cl)cc2Cl)CC1" tested on Plasmodium falciparum.
Result: 738

###

tested on: Plasmodium falciparum; assay: GSK_TCMDC: Inhibition of Plasmodium falciparum 3D7 in whole erythrocytes, using parasite LDH activity as an index of growth.; format: functional, organism-based; conditions: Plasmodium falciparum, 3D7
measured-quantity: XC50 (nM)
Provide the reading as a plain figure in nM.

Reference set, count: 5
INSERT INTO measurements (molecule, measured_quantity, scale_unit, measured_result) VALUES
  ('O=C(Nc1ccc(Cn2ncc(N3CCCNCC3)c(Cl)c2=O)cc1)Nc1cccc(SC(F)(F)F)c1', 'XC50', 'nM', 675),
  ('CC(C)N1CCC(N(Cc2ccc(-c3ccc(C(F)(F)F)cc3)cc2)C(=O)Cn2c(SCc3cccc(F)c3F)cc(=O)c3c2CCC3)CC1', 'XC50', 'nM', 1160),
  ('CCOc1cc(C2C(C(=O)OC(C)C)=C(C)NC3=C2C(=O)CC(c2ccc(Cl)cc2)C3)ccc1OC(C)=O (centres undefined)', 'XC50', 'nM', 932),
  ('O=C(Nc1cc(Cl)cc(Cl)c1)c1cc(Cl)c(=O)n(Cc2ccc(Cl)cc2)c1', 'XC50', 'nM', 863),
  ('CN(C)C(=O)CC(=O)NCc1cccc(Cl)c1', 'XC50', 'nM', 711);

Request: Tell me XC50 reported for "CN1CCCN(Cc2ccc(-c3ccc(NC(=O)c4cccc(Cl)c4)cc3)cc2)CC1"
Result: 859

Request: Tell me XC50 reported for "CS(=O)(=O)NCCCNCc1ccc(-c2ccc(-c3nc4cc(C(F)(F)F)ccc4[nH]3)s2)cc1"
Result: 515

Request: Tell me XC50 reported for "CNC(=O)/C=C/c1cc(NC(=O)Nc2ccnc3c(Br)cccc23)ccc1OC"
Result: 864

Request: Tell me XC50 reported for "CC(C)(C)c1ccc(CNC(=O)/C=C/c2ccc(-c3nc4cc(C(C)(C)C)ccc4[nH]3)cc2)cc1"
Result: 545

###

tested on: Plasmodium falciparum; experiment: GSK_TCMDC: Inhibition of Plasmodium falciparum 3D7 in whole erythrocytes, using parasite LDH activity as an index of growth.; format: functional, organism-based; conditions: Plasmodium falciparum, 3D7
Below: a set of entries, each annotated with reported XC50.
Provide the reading as a plain figure in µM.

INSERT INTO assay_data (molecule, measured_result) VALUES
  ('CC(C)CCN1CCCN(Cc2cccc(NC(=O)c3cc4ccccc4s3)c2)CC1', 0.917),
  ('CC1CCN(Cc2ccc(NC(=O)c3cc4ccc5cccnc5c4[nH]3)cc2)CC1', 0.779),
  ('CC(C)c1ccc(C=CC(=O)N2CCC(CCN3CCC(c4c[nH]c5ccccc45)CC3)CC2)cc1', 1.26),
  ('CCOc1cc2ncnc(Nc3ccc(OCc4ccccc4OC)c(OC)c3)c2cc1OCC', 0.879);

Switching to the query record.
Request: Tell me XC50 reported for "CC(C)(C)c1ccc(NC(=O)c2cccc(CN3CCCN(Cc4ccsc4)CC3)c2)cc1"
Result: 0.76
